All values here come from ChEMBL document CHEMBL1143034.

Provide the recorded pIC50 for the entries that follow.
Test System: Xanthine dehydrogenase/oxidase (Homo sapiens)
Sequence (P47989 whole entry): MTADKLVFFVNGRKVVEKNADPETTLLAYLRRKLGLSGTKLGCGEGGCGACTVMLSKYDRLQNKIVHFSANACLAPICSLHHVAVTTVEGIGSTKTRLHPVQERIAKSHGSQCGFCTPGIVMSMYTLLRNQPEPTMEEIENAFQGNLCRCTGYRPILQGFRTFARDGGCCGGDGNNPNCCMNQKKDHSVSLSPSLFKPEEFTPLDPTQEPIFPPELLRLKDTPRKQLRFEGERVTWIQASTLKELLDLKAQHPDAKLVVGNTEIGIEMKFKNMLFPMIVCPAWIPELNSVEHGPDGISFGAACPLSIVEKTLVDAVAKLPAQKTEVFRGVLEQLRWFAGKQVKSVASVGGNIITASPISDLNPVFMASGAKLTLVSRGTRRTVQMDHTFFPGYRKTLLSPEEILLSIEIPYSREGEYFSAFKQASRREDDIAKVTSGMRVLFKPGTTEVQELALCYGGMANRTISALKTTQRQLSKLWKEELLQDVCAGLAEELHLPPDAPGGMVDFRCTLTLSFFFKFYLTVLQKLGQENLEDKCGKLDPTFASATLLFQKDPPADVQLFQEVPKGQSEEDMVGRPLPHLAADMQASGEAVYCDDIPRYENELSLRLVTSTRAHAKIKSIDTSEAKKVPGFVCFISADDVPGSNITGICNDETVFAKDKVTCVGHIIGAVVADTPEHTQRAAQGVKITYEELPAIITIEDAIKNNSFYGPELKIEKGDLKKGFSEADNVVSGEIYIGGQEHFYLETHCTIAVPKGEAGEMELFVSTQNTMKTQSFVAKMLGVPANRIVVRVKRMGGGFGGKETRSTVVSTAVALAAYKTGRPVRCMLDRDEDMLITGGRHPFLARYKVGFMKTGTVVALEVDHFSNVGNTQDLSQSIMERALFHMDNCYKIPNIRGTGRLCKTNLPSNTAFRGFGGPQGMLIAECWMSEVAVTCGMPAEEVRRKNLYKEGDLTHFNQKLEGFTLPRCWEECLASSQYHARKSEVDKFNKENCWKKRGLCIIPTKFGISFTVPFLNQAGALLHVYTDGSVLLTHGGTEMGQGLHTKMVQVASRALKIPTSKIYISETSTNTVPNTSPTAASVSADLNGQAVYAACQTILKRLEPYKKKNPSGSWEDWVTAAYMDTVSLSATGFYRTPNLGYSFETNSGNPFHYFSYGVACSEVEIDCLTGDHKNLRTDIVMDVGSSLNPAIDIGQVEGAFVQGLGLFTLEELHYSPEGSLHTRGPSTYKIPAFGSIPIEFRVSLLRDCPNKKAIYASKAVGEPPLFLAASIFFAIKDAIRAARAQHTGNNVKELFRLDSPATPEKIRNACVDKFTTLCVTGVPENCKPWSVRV
pIC50: −log10 of the molar value.

Consider the following illustrative entries.
Cn1c(=O)[nH]c2nc[nH]c2c1=O :: < 3.70
Nc1nc(N)c2[nH]cnc2n1 :: < 3.70
Cc1cc2nc[nH]c2cc1C :: < 3.70

Query block: Record Nc1ncnc2[nH]ncc12 : what is its pIC50 with Xanthine dehydrogenase/oxidase (Homo sapiens)?
Result block: 4.52
